Listed compounds paired with reported MBC
# System: Bacillus subtilis
# ASSAY_OVERVIEW: Antibacterial activity against Bacillus subtilis ATCC 6633 after 18 to 24 hrs
# Assay type: functional
MEASURED_PROPERTY: MBC (µg/mL)

- MOLECULAR_STRING: "COc1cc(/C=C/C(=O)c2ccccc2)ccc1OCc1nnc(-c2ccc(Cl)cc2)o1"
  MEASURED_PROPERTY: "MBC"
  UNIT_LABEL: "µg/mL"
  RESULT: 12.5
- MOLECULAR_STRING: "COc1cc(/C=C/C(=O)c2ccc(O)cc2)ccc1OCc1nnc(-c2ccc(Cl)cc2)o1"
  MEASURED_PROPERTY: "MBC"
  UNIT_LABEL: "µg/mL"
  RESULT: 25
- MOLECULAR_STRING: "COc1ccc(C(=O)/C=C/c2ccc(OCc3nnc(-c4ccc(C)cc4)o3)c(OC)c2)cc1"
  MEASURED_PROPERTY: "MBC"
  UNIT_LABEL: "µg/mL"
  RESULT: 25
- MOLECULAR_STRING: "COc1cc(/C=C/C(=O)c2ccc(O)cc2)ccc1OCc1nnc(-c2ccccc2O)o1"
  MEASURED_PROPERTY: "MBC"
  UNIT_LABEL: "µg/mL"
  RESULT: 12.5
- MOLECULAR_STRING: "COc1ccc(C(=O)/C=C/c2ccc(OCc3nnc(-c4ccc(Cl)cc4)o3)c(OC)c2)cc1"
  MEASURED_PROPERTY: "MBC"
  UNIT_LABEL: "µg/mL"
  RESULT: 50

* * *

# Tested on: Escherichia coli
# ASSAY_OVERVIEW: Antibacterial activity against Escherichia coli ATCC 25922 at 100 ug/ml after 24 hrs by disc-diffusion method
# Type: functional
# EXPERIMENTAL_CONTEXT: ATCC 25922, 24 h, read-out: IZ

- MOLECULAR_STRING: "COc1cc(/C=C/C(=O)c2ccc(O)cc2)ccc1OCc1nnc(-c2ccccc2O)o1"
  zone of inhibition at 100 µg/mL: "23 mm"
- MOLECULAR_STRING: "COc1cc(/C=C/C(=O)c2ccc(O)cc2)ccc1OCc1nnc(-c2ccc(Cl)cc2)o1"
  zone of inhibition at 100 µg/mL: "16 mm"
- MOLECULAR_STRING: "COc1cc(/C=C/C(=O)c2ccccc2)ccc1OCc1nnc(-c2ccccc2)o1"
  zone of inhibition at 100 µg/mL: "19 mm"
- MOLECULAR_STRING: "COc1cc(/C=C/C(=O)c2ccc(O)cc2)ccc1OCc1nnc(-c2ccc([N+](=O)[O-])cc2)o1"
  zone of inhibition at 100 µg/mL: "15 mm"
- MOLECULAR_STRING: "COc1ccc(C(=O)/C=C/c2ccc(OCc3nnc(-c4ccc(C)cc4)o3)c(OC)c2)cc1"
  zone of inhibition at 100 µg/mL: "19 mm"
- MOLECULAR_STRING: "COc1cc(/C=C/C(=O)c2ccccc2)ccc1OCc1nnc(-c2ccc(Cl)cc2)o1"
  zone of inhibition at 100 µg/mL: "16 mm"
- MOLECULAR_STRING: "COc1cc(/C=C/C(=O)c2ccccc2)ccc1OCc1nnc(-c2ccccc2O)o1"
  zone of inhibition at 100 µg/mL: "20 mm"
- MOLECULAR_STRING: "COc1cc(/C=C/C(=O)c2ccc(O)cc2)ccc1OCc1nnc(-c2ccc(C)cc2)o1"
  zone of inhibition at 100 µg/mL: "19 mm"
- MOLECULAR_STRING: "COc1ccc(C(=O)/C=C/c2ccc(OCc3nnc(-c4ccccc4O)o3)c(OC)c2)cc1"
  zone of inhibition at 100 µg/mL: "25 mm"
- MOLECULAR_STRING: "COc1ccc(C(=O)/C=C/c2ccc(OCc3nnc(-c4ccc(Cl)cc4)o3)c(OC)c2)cc1"
  zone of inhibition at 100 µg/mL: "17 mm"
- MOLECULAR_STRING: "COc1cc(/C=C/C(=O)c2ccc(O)cc2)ccc1OCc1nnc(-c2ccccc2)o1"
  zone of inhibition at 100 µg/mL: "21 mm"
- MOLECULAR_STRING: "COc1ccc(C(=O)/C=C/c2ccc(OCc3nnc(-c4ccccc4)o3)c(OC)c2)cc1"
  zone of inhibition at 100 µg/mL: "19 mm"
- MOLECULAR_STRING: "COc1cc(/C=C/C(=O)c2ccccc2)ccc1OCc1nnc(COc2ccccc2)o1"
  zone of inhibition at 100 µg/mL: "18 mm"
- MOLECULAR_STRING: "COc1ccc(C(=O)/C=C/c2ccc(OCc3nnc(COc4ccccc4)o3)c(OC)c2)cc1"
  zone of inhibition at 100 µg/mL: "21 mm"
- MOLECULAR_STRING: "COc1cc(/C=C/C(=O)c2ccccc2)ccc1OCc1nnc(-c2ccc(C)cc2)o1"
  zone of inhibition at 100 µg/mL: "19 mm"
- MOLECULAR_STRING: "COc1cc(/C=C/C(=O)c2ccc(O)cc2)ccc1OCc1nnc(COc2ccccc2)o1"
  zone of inhibition at 100 µg/mL: "20 mm"
